# study system: PRMT5/MEP50 (Homo sapiens)
# Sequence (O14744 whole entry): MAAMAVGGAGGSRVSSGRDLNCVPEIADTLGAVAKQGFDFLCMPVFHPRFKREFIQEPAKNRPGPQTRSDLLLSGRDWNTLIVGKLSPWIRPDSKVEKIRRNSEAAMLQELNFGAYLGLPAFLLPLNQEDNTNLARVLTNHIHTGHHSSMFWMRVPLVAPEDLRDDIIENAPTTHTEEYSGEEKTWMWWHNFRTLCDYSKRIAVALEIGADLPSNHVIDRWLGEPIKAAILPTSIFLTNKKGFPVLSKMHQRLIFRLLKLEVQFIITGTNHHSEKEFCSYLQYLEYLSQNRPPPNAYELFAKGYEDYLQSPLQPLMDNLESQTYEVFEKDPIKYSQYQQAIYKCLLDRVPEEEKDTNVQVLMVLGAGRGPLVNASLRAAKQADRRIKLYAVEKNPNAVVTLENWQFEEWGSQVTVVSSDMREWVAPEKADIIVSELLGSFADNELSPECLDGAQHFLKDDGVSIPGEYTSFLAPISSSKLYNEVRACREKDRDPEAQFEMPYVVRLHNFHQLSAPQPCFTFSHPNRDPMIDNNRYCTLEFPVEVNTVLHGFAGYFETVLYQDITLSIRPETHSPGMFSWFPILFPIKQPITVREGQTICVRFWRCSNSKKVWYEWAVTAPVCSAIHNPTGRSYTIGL
# Sequence (Q9BQA1 whole entry partner): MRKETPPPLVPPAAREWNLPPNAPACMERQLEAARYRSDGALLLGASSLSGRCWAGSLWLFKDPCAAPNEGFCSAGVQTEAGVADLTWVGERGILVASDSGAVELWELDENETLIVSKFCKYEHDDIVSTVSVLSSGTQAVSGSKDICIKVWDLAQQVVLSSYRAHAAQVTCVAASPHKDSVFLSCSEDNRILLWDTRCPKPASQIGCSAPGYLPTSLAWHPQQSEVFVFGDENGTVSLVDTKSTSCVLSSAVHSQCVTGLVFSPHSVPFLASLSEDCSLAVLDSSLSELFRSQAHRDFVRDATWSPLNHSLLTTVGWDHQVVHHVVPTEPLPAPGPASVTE
# assay: MTase-Glo methyl transferase assay, Method A (Histone H4 peptide, 1 µM MTA, 24 h pre-incubation)
# Assay type: biochemical
# Set-up: made in house
# protocol conditions: read-out: PRMT5 MTase Glo Ki (nM, Meth. A)
# Experimental: Method A: The PRMT5 inhibitory activity of test compounds was determined using the MTase-Glo™ assay (Promega), which monitors the product (S-adenosyl homocysteine or SAH) of methyltransferase reactions. The PRMT5 MTase-Glo assay was conducted in a 384-well white ProxiPlate (PerkinElmer) in a total volume of 12 µL. […] The light signal corresponding to the amount of SAH produced by the PRMT5 reaction was subsequently measured using an Envision multimode reader (PerkinElmer). […]
So basically, if Ki comes in under 0.2 nM it's satisfied, and if it's 0.2 nM or more it's not satisfied.

Before answering, review these 5 worked examples.
| molecule | category |
| --- | --- |
| Cc1cc2cc(C(=O)N(Cc3ccc(Cl)cn3)Cc3ncccn3)ccc2nc1N [Example 340] | not satisfied |
| Cc1cc2cc(C(=O)N(Cc3ccc(C(F)(F)F)nn3)[C@H](C)c3ncccc3Cl)ccc2nc1N (single isomer, unassigned) [Example 525] | not satisfied |
| Cc1cc2cc(C(=O)N(Cc3ccccn3)Cc3ccc(C(F)(F)F)cn3)ccc2nc1N [Example 302] | not satisfied |
| Cc1cc2cc(C(=O)N(Cc3ccc(C(F)(F)F)nc3)Cc3ncccc3F)ccc2nc1N [Example 322] | not satisfied |
| Cc1cc2cc(C(=O)N(Cc3ccc(S(C)(=O)=O)cn3)[C@H](C)c3ncccc3F)ccc2nc1N [Example 541] | satisfied |

Q. Bench note: check whether Cc1cc2cc(C(=O)N(Cc3ccc(C#N)cn3)[C@@H]3CCOc4cccnc43)ccc2nc1N (single isomer, unassigned) [Example 519] shows Ki below 0.2 nM
A. satisfied

Q. Now the molecule Cc1cc2cc(C(=O)N(Cc3ccc(C#N)cn3)[C@H](C)c3ccccn3)ccc2nc1N (single isomer, unassigned) [Example 473]
A. satisfied

Q. Now the molecule CCOc1ccc(CN(C(=O)c2ccc3nc(N)c(C)cc3c2)[C@H](C)c2ncccn2)nn1 [Example 377]
A. satisfied

Q. Now the molecule Cc1cc2nc(N)c(C)cc2cc1C(=O)N(Cc1ccc(C(F)(F)F)cn1)CC(C)C [Example 539]
A. satisfied

Q. Now the molecule Cc1cc2cc(C(=O)N(Cc3ccc(C(F)(F)F)cn3)[C@H](C)c3cnccn3)ccc2nc1N (single isomer, unassigned) [Example 482]
A. satisfied

Q. Now the molecule Cc1cc2cc(C(=O)N(Cc3ccc(C(F)(F)F)nn3)[C@@H](c3ncccn3)C3CC3)ccc2nc1N (single isomer, unassigned) [Example 518]
A. satisfied

Q. Now the molecule C[C@H](c1ncccc1F)N(Cc1ccc(C(F)(F)F)nn1)C(=O)c1cnc2nc(N)c(Br)cc2c1 [Example 397]
A. not satisfied

Q. Now the molecule Cc1cc(C(F)(F)F)ccc1CN(Cc1ncccc1F)C(=O)c1ccc2nc(N)c(C)cc2c1 [Example 329]
A. satisfied

====

# Test system: HCT116 WT cells
# assay: HCT116 proliferation assay, WT cells (CellTiter-Glo, 6 days)
# Format: cell-based
# protocol conditions: Homo sapiens, HCT-116, 144 h, read-out: Prolif_HCT116-WT IC50
Entries annotated with measured IC50

| molecule | IC50 |
| --- | --- |
| Cc1cc2cc(C(=O)N(Cc3cncc(F)c3)Cc3ccccc3F)ccc2nc1N | 6.8 µM |

Q. Param item = C[C@H](c1ccc(F)cc1F)N(Cc1ccc(C(F)(F)F)cn1)C(=O)c1cnc2nc(N)c(Br)cc2c1 ; retrieve measured IC50.
A. 1.58 µM

Q. Now the molecule Cc1cc2cc(C(=O)N(Cc3ncc(C(F)(F)F)cc3F)CC(C)C)ccc2nc1N
A. > 10 µM
